System Tested: human TGR5 receptor (Homo sapiens, UniProt Q8TDU6)
Sequence (Q8TDU6 whole entry): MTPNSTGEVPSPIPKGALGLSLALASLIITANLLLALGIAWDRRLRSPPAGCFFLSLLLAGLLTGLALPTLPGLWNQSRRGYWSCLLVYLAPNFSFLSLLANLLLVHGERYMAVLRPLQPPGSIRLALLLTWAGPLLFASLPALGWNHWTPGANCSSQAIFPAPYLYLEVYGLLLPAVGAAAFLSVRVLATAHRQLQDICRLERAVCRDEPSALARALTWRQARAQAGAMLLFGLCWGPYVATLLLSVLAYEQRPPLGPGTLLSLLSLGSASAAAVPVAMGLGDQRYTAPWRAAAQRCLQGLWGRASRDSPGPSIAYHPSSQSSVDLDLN
Test Method Notes: Human TGR5 cAMP production assay (hTGR5-CHO cells, DiscoveRx cAMP XS+ kit)
Condition Details: luminescent cAMP assay, read-out: Human TGR5 Lum. cAMP Activity (EC50)
Quantity Name: EC50

- Molecule: "O=C(O)CC[C@@H](NC(=O)CCCC1CCN(c2cc(N3CC[C@H]3C(=O)NCCc3ccc(C(F)(F)F)cc3)nc(C(F)(F)F)n2)CC1)C(=O)O"
  EC50: "< 100 nM"
- Molecule: "CN(C)CC1CCN(c2cc(N3CC[C@H]3C(=O)NCCc3ccc(C#N)cc3)nc(C(F)(F)F)n2)CC1"
  EC50: "100 to 999 nM"
- Molecule: "Cc1nc(N2CCC(CO)CC2)cc(N2CCC[C@H]2C(=O)NCCc2ccc(C#N)cc2)n1"
  EC50: "100 to 999 nM"
- Molecule: "COCCC1CCN(c2cc(N3CCC[C@H]3C(=O)NCCc3ccc(C#N)cc3)nc(C(F)(F)F)n2)CC1"
  EC50: "< 100 nM"
- Molecule: "N#Cc1ccc(CCNC(=O)[C@@H]2CCCN2c2cc(N3CCC(CCCC(=O)NCCNC(=O)c4cc(NC[C@H](O)[C@@H](O)[C@H](O)[C@H](O)CO)ncn4)CC3)nc(C(F)(F)F)n2)cc1"
  EC50: "100 to 999 nM"

Kindly consider the entry below.
**Query** Check human TGR5 receptor (Homo sapiens, UniProt Q8TDU6) data and give EC50 for `N#Cc1ccc(CCNC(=O)[C@@H]2CCCN(c3cc(N4CCC(CCNC(=O)NCCC(=O)O)CC4)nc(C(F)(F)F)n3)C2)cc1` .
**Result** < 100 nM

###

System Tested: mouse TGR5 receptor (Mus musculus)
Construct: host or cells: HEK293-EBNA (293 c18, ATCC CRL10852)
Sequence (Q80SS6 1-329): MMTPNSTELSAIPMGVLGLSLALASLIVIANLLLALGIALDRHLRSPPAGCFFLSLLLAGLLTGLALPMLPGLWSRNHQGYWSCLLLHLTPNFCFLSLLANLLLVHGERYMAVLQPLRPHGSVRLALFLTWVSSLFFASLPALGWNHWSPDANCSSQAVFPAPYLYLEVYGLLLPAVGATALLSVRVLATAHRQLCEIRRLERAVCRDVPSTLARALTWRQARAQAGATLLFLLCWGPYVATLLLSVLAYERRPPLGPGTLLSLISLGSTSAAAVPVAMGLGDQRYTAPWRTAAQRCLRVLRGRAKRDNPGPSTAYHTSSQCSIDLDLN
Test Method Notes: Mouse TGR5 HTRF cAMP production assay (HEK293-EBNA cells, Cisbio cAMP HiRange kit)
Type: cell-based
Condition Details: HEK293-EBNA cells overexpressing mouse TGR5, HTRF cAMP assay
pEC50: −log10 of the molar value.
Reported pEC50 by item:

Record excerpt, results attached:
- Molecule: "N#Cc1ccc(CCNC(=O)[C@@H]2CCCN2c2cc(N3CCC(CCCC(=O)NCCNc4ncc(C(=O)NCCS(=O)(=O)O)cn4)CC3)nc(C(F)(F)F)n2)cc1 [Compound 112]"
  System Tested: "mouse TGR5 receptor (Mus musculus)"
  pEC50: "> 7.00"
- Molecule: "N=C(N)NCCS(=O)(=O)N1CCN(c2cc(N3CCC[C@@H](C(=O)NCCc4ccc(C(F)(F)F)cc4)C3)nc(C(F)(F)F)n2)CC1 [Compound 349]"
  System Tested: "mouse TGR5 receptor (Mus musculus)"
  pEC50: "> 7.00"
- Molecule: "CN(C)CCN1CCN(c2cc(N3CC[C@H]3C(=O)NCCc3ccc(C#N)cc3)nc(C(F)(F)F)n2)CC1 [Compound 226]"
  System Tested: "mouse TGR5 receptor (Mus musculus)"
  pEC50: "6.00 to 7.00"

Kindly consider the entry below.
**Query** Tell me pEC50 reported for N#CCCC1CCN(c2cc(N3CCC[C@H]3C(=O)NCCc3ccc(C(F)(F)F)cc3)nc(C(F)(F)F)n2)CC1 [Compound 11]
**Result** > 7.00
